src = patent US8188059B2

Tested on: rat SGLT2 mRNA
Assay method text: Rat SGLT2 mRNA levels in kidney, 1-10-1 and 1-10-2 MOE gapmers, Sprague-Dawley rats (Example 13, Table 63)
Format: in vivo
Cond: 450 nmol/kg i.p. twice per week for three weeks
Strand notation (5' to 3'): a small letter for the sugar, then the base; units joined by * are phosphorothioate-linked, units joined directly phosphodiester-linked; [ ] holds rarer units or linkages, { } end groups; capitals alone tell only the bases. e = 2'-O-(2-methoxyethyl) (MOE); [5mC] = 5-methylcytosine; d = 2'-deoxy (DNA)
So basically: is % change in SGLT2 expression relative to saline under -80%? Then YES. Not under? Then NO.

Criterion: % change in SGLT2 expression relative to saline strictly below -80%. Is it met by ISIS 379699: SGLT2; GGCATGAGCTTC 1-10-1 MOE (antisense eG*dG*d[5mC]*dA*dT*dG*dA*dG*d[5mC]*dT*dT*e[5mC]) ? YES

# check: % change in SGLT2 expression relative to saline < -80% for ISIS 379692: SGLT2; 1-10-1 MOE gapmer (antisense eT*dG*dT*dT*d[5mC]*d[5mC]*dA*dG*d[5mC]*d[5mC]*d[5mC]*eA) YES

Consider ISIS 382677: SGLT2; GGCATGAGCTTCA 1-10-2 MOE (antisense eG*dG*d[5mC]*dA*dT*dG*dA*dG*d[5mC]*dT*dT*e[5mC]*eA) . Does its % change in SGLT2 expression relative to saline lie strictly below -80%? NO

Decide: % change in SGLT2 expression relative to saline of ISIS 370717: SGLT2; TAGCCACCAACT 1-10-1 MOE gapmer, phosphorothioate (sugars from the 5' end e1 d10 e1, all phosphorothioate, methylation of C not given here) strictly below -80%? NO
